Molecular target: CDK2/Cyclin E1 (Homo sapiens, UniProt P24941)
Experiment: Caliper LabChip EZ Reader mobility shift assay
Format: biochemical
Conditions: 2.5 nM CDK2/Cyclin E1(14-475), 100 μM ATP, 30 min preincubation; read-out: Caliper Assay (CDK2/CCNE1): IC50

MOLECULE	IC50
CC1(C)C[C@@H]1C(=O)N1CC2(CN(C(=O)c3cncs3)C[C@H]2COCc2ccnc(C3CCOCC3)c2)C1 [Compound I-45]	> 10000 nM
CC1(C)C[C@@H]1C(=O)N1CC2(CN(C(=O)c3cncs3)C[C@H]2COc2cccc3ccc(C4CCOCC4)nc23)C1 [Compound I-30]	1000 to 10000 nM
CC1(C)C[C@@H]1C(=O)N1CC2(CN(C(=O)c3cnccn3)C[C@H]2COCc2cccc(-c3ccc(C(F)(F)F)cc3)n2)C1 [Compound I-18]	10 to 100 nM

* * *

Target: CDK2/Cyclin E1 (Homo sapiens)
Experiment: ADP-Glo Luminescent Kinase Assay (CDK2/E1-37C)
Assay type: biochemical
Settings: 0.18 nM CDK2/Cyclin E1, 100 μM ATP, Histone H1, 37° C.; read-out: ADPGLO (CDK2/E1-37C): IC50
QUANTITY MEASURED: IC50

COMPOUND	REPORTED MEASUREMENT
CC1(C)C[C@@H]1C(=O)N1CC2(CN(C(=O)c3cncs3)C[C@H]2COCc2cccc(-c3ccccc3)n2)C1 [Compound I-36]	5000 to 10000 nM
CC(C)(C(=O)N1CC2(CN(C(=O)c3cnn(Cc4ccc(F)cc4)c3)C[C@H]2COCc2cccc(-c3cccc(C(F)(F)F)c3)c2C(=O)O)C1)C(F)(F)F [I′-27]	≤ 500 nM
CC1(C)C[C@@H]1C(=O)N1CC2(CN(C(=O)c3cnn(Cc4ccc(F)cc4)c3)CC2COCc2cccc(C3CCC(C(F)(F)F)CC3)c2C(=O)NS(C)(=O)=O)C1 (some centres unmarked) [Compound I-86]	≤ 500 nM
O=C(O)c1c(COC[C@@H]2CN(C(=O)c3cnn(Cc4ccc(F)cc4C(F)(F)F)c3)CC23CN(C(=O)C2(C(F)(F)F)CC2)C3)cccc1C1CCC(C(F)(F)F)CC1 (some centres unmarked) [Compound I-76]	≤ 500 nM
O=C(c1cnn(Cc2ccc(C(F)(F)F)cc2)c1)N1C[C@@H](COCc2cccc(C3CCC(C(F)(F)F)CC3)c2-c2nn[nH]n2)C2(C1)CN(C(=O)C1(C(F)(F)F)CC1)C2 (some centres unmarked) [Compound I-69]	≤ 500 nM

* * *

Biological target: CDK2/Cyclin E1 (Homo sapiens)
Assay: ADP-Glo Luminescent Kinase Assay (CDK2/E1-37C)
Assay type: biochemical
Conditions: 0.18 nM CDK2/Cyclin E1, 100 μM ATP, Histone H1, 37° C.; read-out: ADPGLO (CDK2/E1-37C): IC50

MOLECULE	IC50
O=C(c1cnc(O)cn1)N1CC(CS(=O)(=O)Cc2cccc(-c3ccc(C(F)(F)F)cc3)n2)C2(C1)CN(C(=O)[C@H]1CC1(F)F)C2 (some centres unmarked) [Compound I-3]	> 10000 nM
CC(C)(C)OC(=O)c1c(COCC2CN(c3cc(F)cc4ncsc34)CC23CN(C(=O)C2(C(F)(F)F)CC2)C3)cccc1C1CCC(C(F)(F)F)CC1 (centres unmarked) [Compound I-57]	> 10000 nM
O=C(O)c1c(COCC2CN(c3cc(F)cc4ncsc34)CC23CN(C(=O)C2(C(F)(F)F)CC2)C3)cccc1C1CCC(C(F)(F)F)CC1 (centres unmarked) [Compound I-61]	> 10000 nM
CC(C)(C)OC(=O)c1c(COCC2CN(C(=O)c3cnn(Cc4ccc(F)cc4)c3)CC23CN(C(=O)[C@H]2CC2(C)C)C3)cccc1C1CCC(F)(F)CC1 (some centres unmarked) [I′-79]	≤ 500 nM
CC(C)(C(=O)N1CC2(CN(C(=O)c3cnn(Cc4ccc(F)cc4)c3)C[C@H]2COCc2cccc(-c3ccccc3C(=O)O)c2)C1)C(F)(F)F [I′-40]	500 to 5000 nM
CS(=O)(=O)NC(=O)c1c(COC[C@@H]2CN(C(=O)c3cnn(Cc4ccc(F)cc4)c3)CC23CN(C(=O)C2(C(F)(F)F)CC2)C3)cccc1C1CCC(F)(F)CC1 [I′-44]	≤ 500 nM
CC(C(=O)N1CC2(CN(C(=O)c3cnn(Cc4ccc(F)cc4)c3)C[C@H]2COCc2cccc(C3CCC(C(F)(F)F)CC3)c2C(=O)O)C1)C(F)(F)F (some centres unmarked) [Compound I-97]	≤ 500 nM
O=C(NS(=O)(=O)c1cccc(C2CCCCC2)c1)C1CN(C(=O)c2cnn(Cc3ccccc3)c2)CC12CN(C(=O)[C@H]1CC1(F)F)C2 (some centres unmarked) [Compound I-1]	5000 to 10000 nM
CS(=O)(=O)NC(=O)c1c(COC[C@@H]2CN(C(=O)c3cnn(Cc4ccc(C(F)(F)F)cc4)c3)CC23CN(C(=O)C2(C(F)(F)F)CC2)C3)cccc1C1CCC(C(F)(F)F)CC1 (some centres unmarked) [Compound I-68]	500 to 5000 nM
CC1(C)C[C@@H]1C(=O)N1CC2(CN(C(=O)c3cnn(Cc4ccc(F)cc4)c3)CC2COCc2cccc(C3CCC(C(F)(F)F)CC3)c2C(=O)O)C1 (some centres unmarked) [I′-85]	≤ 500 nM
O=C(O)c1ccccc1Cn1cc(C(=O)N2CC(COCc3cccc(C4CCC(C(F)(F)F)CC4)c3C(F)(F)F)C3(C2)CN(C(=O)C2(C(F)(F)F)CC2)C3)cn1 (centres unmarked) [Compound I-114]	≤ 500 nM
